Origin of the recorded values: paper PMC5403251

targetOrSystem: UniProt:P18089
Sequence (P18089 whole entry): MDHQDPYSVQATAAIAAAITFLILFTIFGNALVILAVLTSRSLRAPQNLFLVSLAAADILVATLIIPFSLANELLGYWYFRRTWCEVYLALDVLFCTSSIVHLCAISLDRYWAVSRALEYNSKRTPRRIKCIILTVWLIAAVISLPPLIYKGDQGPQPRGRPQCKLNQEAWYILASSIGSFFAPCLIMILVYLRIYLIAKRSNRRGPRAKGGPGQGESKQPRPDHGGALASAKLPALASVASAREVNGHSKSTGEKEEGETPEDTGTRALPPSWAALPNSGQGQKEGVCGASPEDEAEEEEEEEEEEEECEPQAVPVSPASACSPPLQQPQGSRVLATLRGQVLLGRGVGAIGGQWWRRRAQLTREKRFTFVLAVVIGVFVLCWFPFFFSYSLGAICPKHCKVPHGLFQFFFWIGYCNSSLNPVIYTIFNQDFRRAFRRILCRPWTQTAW
experimentNotes: NIMH PDSP binding screen
pKi: −log10 of the molar value.

{"compound": "COc1cc(CCNCc2ccccc2O)c(OC)cc1C#N.Cl [25CN-NBOH]", "pKi": 5.91}

###

targetOrSystem: UniProt P08913
Sequence (P08913 1-465): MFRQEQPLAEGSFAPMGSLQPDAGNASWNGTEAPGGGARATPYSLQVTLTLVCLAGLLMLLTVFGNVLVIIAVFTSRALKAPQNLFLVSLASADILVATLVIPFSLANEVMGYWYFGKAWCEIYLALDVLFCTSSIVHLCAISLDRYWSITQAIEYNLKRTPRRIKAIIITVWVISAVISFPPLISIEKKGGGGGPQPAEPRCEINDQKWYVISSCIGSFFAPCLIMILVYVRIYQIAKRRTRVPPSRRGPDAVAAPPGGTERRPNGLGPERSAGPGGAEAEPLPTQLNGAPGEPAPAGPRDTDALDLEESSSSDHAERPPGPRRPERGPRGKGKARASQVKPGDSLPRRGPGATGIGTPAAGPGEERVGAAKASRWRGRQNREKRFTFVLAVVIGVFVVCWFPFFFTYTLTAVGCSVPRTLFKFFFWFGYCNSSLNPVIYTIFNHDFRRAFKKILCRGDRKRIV

{"molecule": "COc1cc(CCNCc2ccccc2O)c(OC)cc1C#N.Cl [25CN-NBOH]", "Ki (µM)": 0.803}
